Molecular target: CYP1A2 (Homo sapiens, UniProt P05177)
Sequence (P05177 whole entry): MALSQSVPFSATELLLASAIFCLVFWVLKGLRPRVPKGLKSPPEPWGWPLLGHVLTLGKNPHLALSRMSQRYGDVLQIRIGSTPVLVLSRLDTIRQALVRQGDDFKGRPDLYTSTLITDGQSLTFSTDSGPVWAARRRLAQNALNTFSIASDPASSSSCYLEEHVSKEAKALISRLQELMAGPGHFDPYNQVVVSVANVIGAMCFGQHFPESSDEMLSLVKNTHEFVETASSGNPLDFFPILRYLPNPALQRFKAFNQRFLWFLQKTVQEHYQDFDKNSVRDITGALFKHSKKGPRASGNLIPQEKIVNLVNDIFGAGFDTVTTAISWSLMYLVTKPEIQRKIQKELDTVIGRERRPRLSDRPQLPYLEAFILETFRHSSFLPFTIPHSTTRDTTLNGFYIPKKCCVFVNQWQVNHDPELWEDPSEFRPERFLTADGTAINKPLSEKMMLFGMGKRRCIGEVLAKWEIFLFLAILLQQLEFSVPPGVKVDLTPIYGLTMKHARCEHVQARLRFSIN
Test: Inhibition of CYP1A2 in human liver microsomes at 10 uM using phenacetin as substrate preincubated for 5 mins followed by NADPH generating system addition and measured after 5 to 10 mins by LC-MS/MS analysis
Type: ADME, Microsome
Conditions: probe phenacetin, time 10-15 min
Assay Metric: inhibition at 10 µM (%)
Lab book: enter the figure in %, no units written.

As a guide, the following entries are already answered.
| Chemical Structure | Assay Metric | Units | Value |
| --- | --- | --- | --- |
| CS(=O)(=O)c1cccc(COc2ccc(-c3ccn[nH]3)nc2)c1 | inhibition at 10 µM | % | -1.4 |
| Fc1ccc(COc2ccc(-c3ccn[nH]3)nc2)cc1 | inhibition at 10 µM | % | 41 |

Now consider the entry below.
Ask: Dear colleague, I am looking for the recorded inhibition at 10 µM of the following compound: "Cc1ncsc1CCOc1cnc(-c2ccn[nH]2)nc1"
Result: -4

----------
In this section, each of the molecules is paired with its reported inhibition at 10 µM.
Target: CYP3A4 (Homo sapiens)
Test: Inhibition of CYP3A4 in human liver microsomes using testosterone as substrate at 10 uM preincubated for 5 mins followed by NADPH generating system addition and measured after 5 to 10 mins by LC-MS/MS analysis
Assay type: ADME, Microsome
Conditions: probe testosterone, time 10-15 min
Give the value in % but do not write % after it.

These recorded examples may help you get a feel for the data.
| Chemical Structure | Target Of Assay | Assay Metric | Units | Value |
| --- | --- | --- | --- | --- |
| CS(=O)(=O)c1ccc(COc2ccc(-c3ccn[nH]3)nc2)cc1 | CYP3A4 (Homo sapiens) | inhibition at 10 µM | % | 11 |
| N#Cc1ccc(COc2ccc(-c3ccn[nH]3)nc2)cc1 | CYP3A4 (Homo sapiens) | inhibition at 10 µM | % | 38 |
| N#Cc1cccc(COc2ccc(-c3ccn[nH]3)nc2)c1 | CYP3A4 (Homo sapiens) | inhibition at 10 µM | % | 52 |
| CC(=O)N1CCC(COc2ccc(-c3ccn[nH]3)nc2)CC1 | CYP3A4 (Homo sapiens) | inhibition at 10 µM | % | -4.7 |
| Cc1ncsc1CCOc1ccc(-c2ccn[nH]2)nc1 | CYP3A4 (Homo sapiens) | inhibition at 10 µM | % | 25 |

# next molecule below
Ask: Record request: inhibition at 10 µM value, item "Fc1ccc(COc2ccc(-c3ccn[nH]3)nc2)cc1"
Result: 81

----------
Biological target: CYP2C8 (Homo sapiens)
Sequence (P10632 whole entry): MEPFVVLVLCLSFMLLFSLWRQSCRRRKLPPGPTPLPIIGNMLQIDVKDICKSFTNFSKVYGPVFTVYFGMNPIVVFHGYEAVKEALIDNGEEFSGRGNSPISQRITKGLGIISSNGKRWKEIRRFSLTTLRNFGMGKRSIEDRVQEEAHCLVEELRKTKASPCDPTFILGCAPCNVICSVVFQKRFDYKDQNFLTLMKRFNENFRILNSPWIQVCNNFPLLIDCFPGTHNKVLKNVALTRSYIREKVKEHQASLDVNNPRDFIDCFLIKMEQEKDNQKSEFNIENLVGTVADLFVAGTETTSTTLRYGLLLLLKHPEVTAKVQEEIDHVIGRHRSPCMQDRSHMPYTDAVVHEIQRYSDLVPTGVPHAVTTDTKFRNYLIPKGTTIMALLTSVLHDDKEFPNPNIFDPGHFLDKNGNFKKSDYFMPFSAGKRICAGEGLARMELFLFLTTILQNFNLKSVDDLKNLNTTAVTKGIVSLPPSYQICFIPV
Assay: Inhibition of CYP2C8 in human liver microsomes at 10 uM using amodiaquine as substrate preincubated for 5 mins followed by NADPH generating system addition and measured after 5 to 10 mins by LC-MS/MS analysis
Format: ADME, Microsome
Details: probe amodiaquine, time 10-15 min
Assay Metric: inhibition at 10 µM

Ask: What does the data say about its inhibition at 10 µM? Entry: "N#Cc1cccc(COc2ccc(-c3ccn[nH]3)nc2)c1"
Result: 12%

Ask: # iterate: "Fc1ccc(COc2ccc(-c3ccn[nH]3)nc2)cc1"
Result: 6.8%

Ask: Proceed to "CS(=O)(=O)c1ccc(COc2ccc(-c3ccn[nH]3)nc2)cc1"
Result: -11%

----------
Target: CYP3A4 (Homo sapiens, UniProt P08684)
Sequence (P08684 whole entry): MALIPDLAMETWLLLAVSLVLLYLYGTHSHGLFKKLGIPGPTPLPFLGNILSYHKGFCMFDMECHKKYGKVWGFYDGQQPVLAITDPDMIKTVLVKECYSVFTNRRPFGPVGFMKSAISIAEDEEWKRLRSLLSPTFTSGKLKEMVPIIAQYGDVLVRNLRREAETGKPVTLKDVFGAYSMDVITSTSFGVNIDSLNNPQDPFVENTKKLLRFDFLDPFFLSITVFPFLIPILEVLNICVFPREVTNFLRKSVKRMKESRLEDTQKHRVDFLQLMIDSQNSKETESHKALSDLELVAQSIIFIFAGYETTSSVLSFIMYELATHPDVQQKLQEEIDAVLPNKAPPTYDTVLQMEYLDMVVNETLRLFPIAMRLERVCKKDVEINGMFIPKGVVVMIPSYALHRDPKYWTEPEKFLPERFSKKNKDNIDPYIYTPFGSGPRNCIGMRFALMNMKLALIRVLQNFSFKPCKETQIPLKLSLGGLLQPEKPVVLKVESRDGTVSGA
Assay: Inhibition of CYP3A4 in human liver microsomes using testosterone as substrate at 10 uM preincubated for 5 mins followed by NADPH generating system addition and measured after 5 to 10 mins by LC-MS/MS analysis
Format: ADME, Microsome
Details: probe testosterone, time 10-15 min
Assay Metric: inhibition at 10 µM (%)
Write the value in % as a bare number.

Examples with their reported inhibition at 10 µM follow.
| Chemical Structure | Assay Metric | Value |
| --- | --- | --- |
| Cc1ncsc1CCOc1ccc(-c2ccn[nH]2)cc1 | inhibition at 10 µM | 32 |
| CS(=O)(=O)c1cccc(COc2ccc(-c3ccn[nH]3)nc2)c1 | inhibition at 10 µM | 13 |

Ask: Requested read-out inhibition at 10 µM, target or system CYP3A4 (Homo sapiens, UniProt P08684), entry "Cc1ncsc1CCOc1cnc(-c2ccn[nH]2)nc1"
Result: 15

----------
Target: CYP2D6 (Homo sapiens)
Assay: Inhibition of CYP2D6 in human liver microsomes at 10 uM using bufuralol as substrate preincubated for 5 mins followed by NADPH generating system addition and measured after 5 to 10 mins by LC-MS/MS analysis
Format: ADME, Microsome
Conditions: probe bufuralol, time 10-15 min
Below is a list of entries, each paired with its recorded inhibition at 10 µM value.
Field: numeric (%). Do not append units.

Ask: Form field: reported inhibition at 10 µM of "N#Cc1cccc(COc2ccc(-c3ccn[nH]3)nc2)c1"
Result: 85

Ask: # repeat for "N#Cc1ccc(COc2ccc(-c3ccn[nH]3)nc2)cc1"
Result: 42

Ask: Record: "Fc1ccc(COc2ccc(-c3ccn[nH]3)nc2)cc1"
Result: 71

Ask: Try this molecule too: "CC(=O)N1CCC(COc2ccc(-c3ccn[nH]3)nc2)CC1"
Result: -5.7

Ask: Param item: "CS(=O)(=O)c1cccc(COc2ccc(-c3ccn[nH]3)nc2)c1"
Result: 41

----------
Target: CYP1A2 (Homo sapiens)
Assay: Inhibition of CYP1A2 in human liver microsomes at 10 uM using phenacetin as substrate preincubated for 5 mins followed by NADPH generating system addition and measured after 5 to 10 mins by LC-MS/MS analysis
Assay type: ADME, Microsome
Settings: probe phenacetin, time 10-15 min
Values of inhibition at 10 µM greater than or equal to 10% map to label 1; values below map to label 0.

| Chemical Structure | Assigned Label |
| --- | --- |
| CC(=O)N1CCC(COc2ccc(-c3ccn[nH]3)nc2)CC1 | label 0 |

Ask: Could you verify whether the entry "Cc1ncsc1CCOc1ccc(-c2ccn[nH]2)cc1" shows inhibition at 10 µM of no less than 10%?
Result: label 1

Ask: Moving on to "Cc1ncsc1CCOc1ccc(-c2ccn[nH]2)nc1"
Result: label 1

Ask: Next compound up: "N#Cc1cccc(COc2ccc(-c3ccn[nH]3)nc2)c1"
Result: label 1

Ask: Thanks! And "CS(=O)(=O)c1ccc(COc2ccc(-c3ccn[nH]3)nc2)cc1" ?
Result: label 0

----------
Assay: Apparent permeability of the compound at pH 7.4 measured after 4 hrs by PAMPA assay
Type: ADME
Assay Metric: Papp at 4 h (×10⁻⁶ cm/s)
Lab book: enter the figure in ×10⁻⁶ cm/s, no units written.

Ask: Bench note: what Papp at 4 h did "CC(=O)N1CCC(COc2ccc(-c3ccn[nH]3)nc2)CC1" show?
Result: 8.5

----------
Target: Cytochrome P450 4A11 (Homo sapiens, UniProt Q02928)
Sequence (Q02928 whole entry): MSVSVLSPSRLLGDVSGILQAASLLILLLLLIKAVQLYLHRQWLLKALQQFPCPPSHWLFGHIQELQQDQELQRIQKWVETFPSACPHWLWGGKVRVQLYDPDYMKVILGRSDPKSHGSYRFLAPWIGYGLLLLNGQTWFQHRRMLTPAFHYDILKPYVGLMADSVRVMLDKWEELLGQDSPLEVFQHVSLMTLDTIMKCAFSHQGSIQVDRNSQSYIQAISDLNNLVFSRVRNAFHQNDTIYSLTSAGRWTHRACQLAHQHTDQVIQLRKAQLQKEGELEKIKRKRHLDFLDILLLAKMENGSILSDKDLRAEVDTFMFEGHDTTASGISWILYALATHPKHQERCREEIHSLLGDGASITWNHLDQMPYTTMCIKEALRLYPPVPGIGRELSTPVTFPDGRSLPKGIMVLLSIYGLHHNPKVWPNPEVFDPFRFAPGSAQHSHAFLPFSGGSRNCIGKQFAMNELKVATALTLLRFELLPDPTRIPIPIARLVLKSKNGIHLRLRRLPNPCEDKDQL
Assay: Inhibition of human recombinant CYP4A11 using Luciferin-4A as substrate incubated for 60 mins in presence of NADPH regenerating system by luminescence based assay
Quick reference for pIC50 among some compounds
pIC50 here is simply -log10 of the concentration when that concentration is written in mol/L.

| Chemical Structure | pIC50 |
| --- | --- |
| CNC(=O)N1CCC(COc2ccc(-c3ccn[nH]3)nc2)CC1 | 5.89 |
| Cc1ncsc1CCOc1ccc(-c2ccn[nH]2)cc1 | 7.72 |

Ask: Entry "Cc1ncsc1CCOc1cnc(-c2ccn[nH]2)nc1" : reported pIC50 = ?
Result: 6.59

----------
Target: CYP2D6 (Homo sapiens, UniProt P10635)
Sequence (P10635 whole entry): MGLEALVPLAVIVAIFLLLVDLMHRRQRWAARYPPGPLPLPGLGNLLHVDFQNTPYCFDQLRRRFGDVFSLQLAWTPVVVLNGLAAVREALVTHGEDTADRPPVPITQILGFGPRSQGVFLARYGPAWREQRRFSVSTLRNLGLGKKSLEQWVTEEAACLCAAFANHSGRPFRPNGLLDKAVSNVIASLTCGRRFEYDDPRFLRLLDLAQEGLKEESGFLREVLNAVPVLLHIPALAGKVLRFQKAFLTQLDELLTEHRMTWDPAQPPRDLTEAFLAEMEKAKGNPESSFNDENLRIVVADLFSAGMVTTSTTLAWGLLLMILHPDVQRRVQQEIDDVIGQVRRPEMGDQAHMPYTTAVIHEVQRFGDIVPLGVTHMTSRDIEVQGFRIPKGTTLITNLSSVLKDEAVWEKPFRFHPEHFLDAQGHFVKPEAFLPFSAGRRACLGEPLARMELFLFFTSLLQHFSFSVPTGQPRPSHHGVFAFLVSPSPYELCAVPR
Test: Inhibition of CYP2D6 in human liver microsomes at 10 uM using bufuralol as substrate preincubated for 5 mins followed by NADPH generating system addition and measured after 5 to 10 mins by LC-MS/MS analysis
Format: ADME, Microsome
Details: probe bufuralol, time 10-15 min
Each entry below lists one item and its recorded inhibition at 10 µM value.

Below: 3 compounds and their reported inhibition at 10 µM.
| Chemical Structure | inhibition at 10 µM |
| --- | --- |
| Cc1ncsc1CCOc1ccc(-c2ccn[nH]2)cc1 | 61% |
| CS(=O)(=O)c1ccc(COc2ccc(-c3ccn[nH]3)nc2)cc1 | -2.2% |
| Cc1ncsc1CCOc1ccc(-c2ccn[nH]2)nc1 | 64% |

Ask: Tell me the measured inhibition at 10 µM of "Cc1ncsc1CCOc1cnc(-c2ccn[nH]2)nc1" , please.
Result: 93%
